System: LXRb homodimer (NR concentration 270 nM)
assay.protocol: PBM binding z-score (relative to random genomic background probes); higher = stronger binding; sequences stand for … in GC…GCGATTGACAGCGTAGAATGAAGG
Answer class 0 if PBM binding z-score is under -0.5, and class 1 if it is -0.5 or more.

Use these answered entries as a reference point.
sequence=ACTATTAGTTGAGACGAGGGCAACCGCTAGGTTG tgt="LXRb homodimer (NR concentration 270 nM)" class_assignment="class 1"
sequence=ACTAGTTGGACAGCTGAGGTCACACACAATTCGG tgt="LXRb homodimer (NR concentration 270 nM)" class_assignment="class 1"
sequence=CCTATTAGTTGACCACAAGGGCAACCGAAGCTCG tgt="LXRb homodimer (NR concentration 270 nM)" class_assignment="class 1"

Query sequence follows.
*Q* Hello, I need to know if "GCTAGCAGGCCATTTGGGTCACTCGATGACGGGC" has measured PBM binding z-score not below -0.5. Thanks!
*A* class 0
